- protocol_details: Cytotoxicity against human HGF cells after 24 by MTT assay
- Format: cell-based
- condition: read-out: LD50 (the source's name)
measurement_label: CC50 (µg/mL)
Your answer should be a plain number; it is taken to be in µg/mL.

smiles_structure: C[C@@H]1CC[C@@]2(OC1)O[C@H]1C[C@H]3[C@@H]4CC=C5C[C@@H](O[C@@H]6O[C@H](CO)[C@@H](O[C@@H]7O[C@@H](C)[C@H](O[C@@H]8O[C@@H](C)[C@H](O)[C@@H](O)[C@H]8O)[C@@H](O)[C@H]7O)[C@H](O)[C@H]6O[C@@H]6O[C@@H](C)[C@H](O)[C@@H](O)[C@H]6O)[C@H](O)C[C@]5(C)[C@H]4CC[C@]3(C)[C@H]1[C@@H]2C
value_units: µg/mL
CC50: 9.1

Shift focus to the following entry.
Enquiry: Which value of CC50 has been reported for C[C@@H]1CC[C@@]2(OC1)O[C@H]1C[C@H]3[C@@H]4CC=C5C[C@@H](O[C@@H]6O[C@H](CO)[C@H](O[C@@H]7O[C@H](CO)[C@@H](O)[C@H](O[C@@H]8OC[C@@H](O)[C@H](O)[C@H]8O)[C@H]7O[C@@H]7O[C@H](CO)[C@@H](O)[C@H](O)[C@H]7O)[C@H](O)[C@H]6O)[C@H](O)C[C@]5(C)[C@H]4CC[C@]3(C)[C@H]1[C@@H]2C in the records?
Return: 37
